- Experimental target: human DLL4, full length, on cells (human, UniProt Q9NR61 27-685)
- Sequence (Q9NR61 27-685 limits assumed): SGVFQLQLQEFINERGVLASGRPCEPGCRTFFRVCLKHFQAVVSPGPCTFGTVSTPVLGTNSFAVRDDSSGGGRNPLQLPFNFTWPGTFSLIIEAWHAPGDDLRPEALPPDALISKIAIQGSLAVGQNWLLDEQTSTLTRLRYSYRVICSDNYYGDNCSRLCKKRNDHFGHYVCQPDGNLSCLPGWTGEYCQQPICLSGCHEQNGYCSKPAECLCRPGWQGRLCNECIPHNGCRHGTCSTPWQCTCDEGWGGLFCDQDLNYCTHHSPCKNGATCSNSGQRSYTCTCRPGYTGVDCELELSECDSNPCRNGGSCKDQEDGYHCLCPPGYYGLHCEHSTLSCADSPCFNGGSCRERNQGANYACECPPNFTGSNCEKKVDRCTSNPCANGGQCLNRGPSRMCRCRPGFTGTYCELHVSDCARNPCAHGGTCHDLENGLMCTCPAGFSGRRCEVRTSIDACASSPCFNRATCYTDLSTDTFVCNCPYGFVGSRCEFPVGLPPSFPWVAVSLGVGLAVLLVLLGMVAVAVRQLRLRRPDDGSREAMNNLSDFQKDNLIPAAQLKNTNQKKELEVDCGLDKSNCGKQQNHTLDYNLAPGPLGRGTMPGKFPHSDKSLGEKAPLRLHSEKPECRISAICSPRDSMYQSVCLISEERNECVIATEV
- Assay protocol: cell-based or functional assay
The binders listed here are annotated with their Reporter Assay (EC50, nM).
Endpoint name: Reporter Assay (EC50, nM)

>>> assay_result("h1A11.9 (antibody, V domains shown, humanized IgG; also called VH.1b/VL.1 1A11) VH: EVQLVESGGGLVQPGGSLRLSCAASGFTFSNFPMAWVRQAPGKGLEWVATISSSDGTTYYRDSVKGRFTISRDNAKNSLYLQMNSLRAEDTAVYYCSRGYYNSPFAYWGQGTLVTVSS VL: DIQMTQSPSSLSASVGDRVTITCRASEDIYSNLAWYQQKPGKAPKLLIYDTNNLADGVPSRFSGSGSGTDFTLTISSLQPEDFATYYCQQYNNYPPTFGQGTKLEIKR")
3.18
>>> assay_result("h1A11.3 (antibody, V domains shown, humanized IgG; also called VH.1/VL.1b 1A11) VH: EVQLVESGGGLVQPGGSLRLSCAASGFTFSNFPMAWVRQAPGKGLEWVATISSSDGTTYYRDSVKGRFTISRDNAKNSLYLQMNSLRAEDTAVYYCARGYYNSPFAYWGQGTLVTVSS VL: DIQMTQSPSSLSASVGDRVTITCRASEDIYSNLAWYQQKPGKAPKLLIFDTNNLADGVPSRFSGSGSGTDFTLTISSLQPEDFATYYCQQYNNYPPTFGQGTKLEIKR")
2.53
>>> assay_result("h1A11.12 (antibody, V domains shown, humanized IgG; also called VH.1b/VL.2a 1A11) VH: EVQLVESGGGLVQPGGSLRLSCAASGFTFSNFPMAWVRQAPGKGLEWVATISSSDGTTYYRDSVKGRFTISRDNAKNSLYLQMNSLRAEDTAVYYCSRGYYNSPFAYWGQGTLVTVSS VL: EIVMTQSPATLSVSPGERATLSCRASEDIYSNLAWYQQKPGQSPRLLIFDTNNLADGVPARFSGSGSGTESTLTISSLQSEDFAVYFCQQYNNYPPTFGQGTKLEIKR")
2.89
